Target: Albumin (Bos taurus) (UniProt P02769)
Sequence (P02769 whole entry, looked up): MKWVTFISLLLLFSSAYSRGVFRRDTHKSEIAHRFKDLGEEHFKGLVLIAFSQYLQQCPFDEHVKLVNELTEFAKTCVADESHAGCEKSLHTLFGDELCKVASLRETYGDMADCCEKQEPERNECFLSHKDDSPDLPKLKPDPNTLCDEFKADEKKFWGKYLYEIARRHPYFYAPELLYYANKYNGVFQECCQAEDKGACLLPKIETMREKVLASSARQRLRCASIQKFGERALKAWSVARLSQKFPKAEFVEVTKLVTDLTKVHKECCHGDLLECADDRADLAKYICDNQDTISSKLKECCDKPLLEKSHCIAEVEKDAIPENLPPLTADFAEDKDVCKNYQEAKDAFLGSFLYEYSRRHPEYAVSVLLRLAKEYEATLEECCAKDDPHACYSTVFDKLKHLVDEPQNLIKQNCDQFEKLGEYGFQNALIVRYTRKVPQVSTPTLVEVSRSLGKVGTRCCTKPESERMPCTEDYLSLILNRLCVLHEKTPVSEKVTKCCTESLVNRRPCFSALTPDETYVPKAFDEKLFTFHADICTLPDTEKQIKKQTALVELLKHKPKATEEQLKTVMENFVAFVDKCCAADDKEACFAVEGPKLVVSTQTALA
Test: bovine serum albumin binders on microarray, profiling panel, artefact control for SMM control protein annotation, biochemical, small-molecule microarray, Alexa647 label, 635/667 nm fluorescence (AID 1118);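 note: score merges 667 nm emission intensity and signal-to-noise per printed compound spot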
Conditions: BSA-A647 binding, fluorescence 635 nm, higher = more signal
Each record here notes measured composite z-score.
assay metric: composite z-score

INSERT INTO assay_data (molecule, observed_result) VALUES
  ('CC(C)c1ccc(NN2C(C(O)C(c3ccccc3)c3ccccc3)C=CC3C(=O)N(c4ccccc4)C(=O)C32)cc1 (stereo unspecified)', 0.933),
  ('COc1ccc(CCNC(=O)[C@@]2(C)c3ccccc3C(=O)N(Cc3cc(F)cc(C(F)(F)F)c3)[C@H]2c2ccc(CO)cc2)cc1', -0.825),
  ('CC(C)(C)OC(=O)CC[C@@]1(C(N)=O)N=C(c2ccc(OCCCO)cc2)O[C@@H]1c1ccccc1', 0.604),
  ('O=C1O[C@H](c2ccccc2)[C@H](c2ccccc2)N2[C@H]1[C@@H](C(=O)N1CCN(c3ncccn3)CC1)[C@]1(C(=O)Nc3ccc(C#CC4=CCCCC4)cc31)[C@H]2c1ccc(O)cc1', 0.444),
  ('CC(=O)NCCCC[C@@H]1NC(=O)[C@@H]2C[C@H](C(=O)NCCCCCCNC(=O)CS)[C@H](c3cccc(OCCO)c3)N2C1=O', -0.133),
  ('COCCOC(=O)N1C(=O)[C@@]2(c3cc(C#CCCO)ccc31)[C@H](c1ccc(OCCO)cc1)N1[C@H](c3ccccc3)[C@H](c3ccccc3)OC(=O)[C@H]1[C@@H]2C(=O)N1CCN(c2ncccn2)CC1', 0.679),
  ('COc1ccc(CCN2C(=O)[C@@]3(Cc4ccccc42)c2ccccc2C(=O)N(Cc2ccccc2C(F)(F)F)[C@H]3c2ccc(CO)cc2)cc1', -0.951),
  ('O=C(NCc1ccc(F)cc1)[C@H]1C[C@H]2C(=O)N[C@@H](Cc3ccccc3)C(=O)N2[C@H]1c1ccc(O)cc1', -1.22),
  ('C=CCOC(=O)[C@@H]1[C@H]2C(=O)O[C@H](c3ccccc3)[C@H](c3ccccc3)N2[C@H](c2ccc(OCCOC(=O)[C@@H]3C[C@@H]4C(=O)N[C@@H](CCCC[N+](C)(C)C)C(=O)N4[C@@H]3c3cccc(OCCO)c3)cc2)[C@@]12C(=O)Nc1ccc(I)cc12', 0.769),
  ('COC(=O)[C@@]1(Cc2ccc(F)cc2)[C@H]2c3cc(C(=O)N(C)C)n(Cc4ccc(S(C)(=O)=O)cc4)c3C[C@H]2CN1C(=O)c1ccccc1', 0.653),
  ('CN1C(=O)C2C=CC(C(O)c3cccs3)N(Nc3ccccc3)C2C1=O (stereo unspecified)', 0.95),
  ('CC[C@@H]1C=C(C(=O)O)[C@H](c2ccco2)N1S(=O)(=O)c1ccc(C)cc1', -0.179),
  ('C=CC[C@@]1(C(=O)N(C)C)N=C(c2ccc(OCCCO)cc2)O[C@@H]1c1ccccc1N=[N+]=[N-]', 0.757),
  ('COc1ccc(C(O)C2C=CC3C(=O)N(C)C(=O)C3N2N2CCCCC2)c2ccccc12 (stereo unspecified)', 0.9),
  ('CCc1oc(CC[C@@H](CO)NC(=O)NCCn2cc(C3(O)CCCCC3)nn2)c(C(=O)OC)c1C(=O)OC', -0.272),
  ('O=C(NCC(F)(F)F)[C@@H]1c2ccccc2C(=O)N(C2CCCCC2)[C@H]1c1ccc(CO)cc1', 0.558),
  ('C#CCN(CC1=CCCCC1)[C@H](c1ccccc1Br)[C@@H](O)Cc1ccccc1', 0.306),
  ('COc1ccc(C(=O)Nc2cccc(CN3C(=O)[C@]4(O[C@H](CCO)[C@@H]([Si](C)(C)c5ccc(OC)cc5)[C@@H]4C)c4ccccc43)c2)cc1', 0.0296),
  ('COc1ccc(C(O)C2C=CC3C(=O)NC(=O)C3N2Nc2ccccn2)cc1 (stereo unspecified)', -0.131),
  ('COc1ccc(C(O)C2C=CC3C(=O)N(c4ccccc4)C(=O)C3N2Nc2ccc(C(C)C)cc2)cc1OCc1ccccc1 (stereo unspecified)', 0.895),
  ('CC(C)N1C(=O)c2ccccc2[C@](C)(C(=O)NCc2ccccc2)[C@@H]1c1ccc(CO)cc1', 0.182);

The measured values listed here are drawn from PubChem BioAssay.
